target_desc: NGF (nerve growth factor) (Homo sapiens, UniProt P01138 P01138:122-241)
Sequence (P01138 122-241, one chain of several): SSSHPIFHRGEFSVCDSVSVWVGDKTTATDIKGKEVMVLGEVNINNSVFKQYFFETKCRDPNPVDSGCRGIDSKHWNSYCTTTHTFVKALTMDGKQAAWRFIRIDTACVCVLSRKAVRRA
assay_notes: cell_activity; neurite outgrowth inhibition
condition_summary: tags: R&D Systems; chain copies: 2
assay_endpoint: pIC50
// returns pIC50 (minus log10 of molar concentration), number only

>  <binder>
GGGUCCUGGAUAAGAGTUUCCGUCUCGUAUCCTGUUACCC (ssRNA, 2'-F C5,U7,U18,U19,C20,C24,U25,U36; dT17,dT33; 2'-OH G8,G34; 2'-H A; 2'-OMe all other; idT 5' and 3') [SEQ ID NO: 162]

>  <pIC50>
10.48

$$$$
>  <binder>
GGGUCCUGGAUAAGAGUUUCCGUCUCGUAUCCUGUUACCC (ssRNA, 2'-F C5,U7,U17,U18,U19,C20,C24,U25,U33,U36; 2'-OH G8,G34; 2'-H A; 2'-OMe all other; 5' PEG80TS4; 3' idT) [SEQ ID NO: 82(55)]

>  <pIC50>
10.00

$$$$
>  <binder>
GGGUCCUGGAUAAGAGUUUCCGUCUCGUAUCCTGUUACCC (ssRNA, 2'-F C5,U7,U17,U18,U19,C20,C24,U25,U36; dT33; 2'-OH G8,G34; 2'-H A; 2'-OMe all other; idT 5' and 3') [SEQ ID NO: 161]

>  <pIC50>
10.44

$$$$
>  <binder>
GGGUCCUGUCGCUAAGUUUCCGUCUUUGCGGCUGUUACCC (ssRNA, 2'-F C and U; 2'-OH G; 2'-H (deoxy) A) [SEQ ID NO: 84]

>  <pIC50>
9.10

$$$$

Moving on to the next binder.
What does the record list as pIC50 for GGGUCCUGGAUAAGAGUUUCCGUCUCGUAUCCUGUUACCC (ssRNA, 2'-F C5,U7,U17,U18,U19,C20,C24,U25,U33,U36; 2'-OH G8,G34; 2'-H A; 2'-OMe all other; 5' PEG40TS2; 3' idT) [SEQ ID NO: 82(64)] ?
9.97
